Reference source for all entries: patent US20230310428A1

pIC50 values by entry
molecular target: various mutants of kinase EGFR (BaF3 cell lines stably transfected with kinase) (Homo sapiens); construct: other: BaF3 cells stably transfected with EGFR Δ19Del; MTS, 48 h; other: BaF3 cell line stably transfected with EGFR Δ19Del; experiment: Growth inhibitory activity of compounds on BaF3 cell lines stably transfected with kinase (MTS, 48 h); type: cell-based; settings: BaF3 cell line stably transfected with EGFR Δ19Del, read-out: Δ19Del growth inhibitory activity IC50
pIC50: −log10 of the molar value.

Sample records with pIC50:
C=Cc1cc(Nc2nc(Nc3ccc4nccnc4c3N(C)S(C)(=O)=O)c3occc3n2)c(OC(F)(F)F)cc1N1CCC(N2CCN(C)CC2)CC1 [II-1-42] ... 6.30 to 7.30
CCc1cc(Nc2nc(Nc3ccc4nccnc4c3N(C)S(C)(=O)=O)c3sccc3n2)c(OC)cc1N1CCC(N(C)C)C1 (stereo not shown) [II-1-17] ... 6.30 to 7.30
COc1ccc(N2CCC(O)CC2)cc1Nc1ncc(Cl)c(Nc2ccc3nccnc3c2N(C)S(=O)(=O)C2CC2)n1 [Compound I-374] ... 6.30 to 7.30
CCOc1cnc(Nc2cc(CC)c(N3CCC(N4CCN(C)CC4)CC3)cc2OC)nc1Nc1ccc2nccnc2c1N(C)S(C)(=O)=O [Compound I-337] ... ≥ 7.30
COc1ccc(N2CCC(O)CC2)cc1Nc1ncc(C)c(Nc2ccc3nccnc3c2N(C)S(C)(=O)=O)n1 [Compound I-362] ... 6.30 to 7.30

Inquiry: What value of measured pIC50 is listed for CCc1cc(Nc2ncc(Br)c(Nc3ccc4nccnc4c3N(C3CC3)S(C)(=O)=O)n2)c(OC)cc1N1CCN(C)CC1 [Compound I-310] ?
Reply text: 6.30 to 7.30

Inquiry: What value of measured pIC50 is listed for COc1ccc(N2CCC(O)CC2)cc1Nc1ncc(Cl)c(Nc2ccc3nccnc3c2N(C)S(C)(=O)=O)n1 [Compound I-368] ?
Reply text: 6.30 to 7.30

---

target: various mutants of kinase EGFR (BaF3 cell lines stably transfected with kinase) (Homo sapiens, UniProt P00533, T790M/C797S, form not given); construct: other: BaF3 cells stably transfected with EGFR Δ19Del/T790M/C797S; MTS, 48; other: BaF3 cell line stably transfected with EGFR Δ19Del/T790M/C7; experiment: Growth inhibitory activity of compounds on BaF3 cell lines stably transfected with kinase (MTS, 48 h); type: cell-based; settings: BaF3 cells stably transfected with EGFR Δ19Del/T790M/C797S, read-out: IC50, growth inhibition, Δ19Del/T790M/C797S
Sequence (P00533 with tags, fused parts or gaps DEL746-750/T790M/C797S, form open): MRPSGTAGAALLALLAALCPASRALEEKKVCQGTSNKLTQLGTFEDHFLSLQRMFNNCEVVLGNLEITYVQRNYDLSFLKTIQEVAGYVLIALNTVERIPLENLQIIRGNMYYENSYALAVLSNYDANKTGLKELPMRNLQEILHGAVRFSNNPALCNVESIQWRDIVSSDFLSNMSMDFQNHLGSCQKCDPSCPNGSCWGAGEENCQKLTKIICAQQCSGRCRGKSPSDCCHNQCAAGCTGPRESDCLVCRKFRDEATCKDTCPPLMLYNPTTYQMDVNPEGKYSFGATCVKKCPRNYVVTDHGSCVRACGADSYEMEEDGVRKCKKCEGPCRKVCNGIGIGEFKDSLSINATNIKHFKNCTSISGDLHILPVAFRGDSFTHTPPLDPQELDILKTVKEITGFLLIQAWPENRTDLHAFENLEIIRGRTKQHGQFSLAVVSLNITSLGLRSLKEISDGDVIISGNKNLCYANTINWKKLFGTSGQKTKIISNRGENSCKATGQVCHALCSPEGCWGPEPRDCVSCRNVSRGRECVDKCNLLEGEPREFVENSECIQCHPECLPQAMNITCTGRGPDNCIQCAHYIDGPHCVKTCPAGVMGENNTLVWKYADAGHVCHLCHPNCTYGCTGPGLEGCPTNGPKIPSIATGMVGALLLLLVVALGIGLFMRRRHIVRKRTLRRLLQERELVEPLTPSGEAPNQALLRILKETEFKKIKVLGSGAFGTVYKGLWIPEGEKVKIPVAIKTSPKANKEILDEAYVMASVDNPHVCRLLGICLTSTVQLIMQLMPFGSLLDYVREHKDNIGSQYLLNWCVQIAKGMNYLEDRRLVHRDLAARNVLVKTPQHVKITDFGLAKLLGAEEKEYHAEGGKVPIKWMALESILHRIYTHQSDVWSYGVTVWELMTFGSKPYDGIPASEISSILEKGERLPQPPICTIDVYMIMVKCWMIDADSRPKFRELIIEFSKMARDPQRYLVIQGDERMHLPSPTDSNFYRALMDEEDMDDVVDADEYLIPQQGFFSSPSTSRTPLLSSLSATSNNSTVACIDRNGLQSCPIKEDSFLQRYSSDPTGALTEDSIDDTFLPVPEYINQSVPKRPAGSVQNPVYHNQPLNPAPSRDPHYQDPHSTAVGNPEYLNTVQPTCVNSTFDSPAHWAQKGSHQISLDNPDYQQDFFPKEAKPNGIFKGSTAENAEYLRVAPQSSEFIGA
Observable: IC50

CN1CCN(C2CCN(c3ccc(Nc4ncc(C(F)(F)F)c(Nc5ccc6nccnc6c5N(C)S(C)(=O)=O)n4)c(OC(F)(F)F)c3)CC2)CC1 ... 50 to 500 nM
CCc1cc(Nc2ncc(Cl)c(Nc3ccc4nccnc4c3N(CC)S(C)(=O)=O)n2)c(OC)cc1N1CCN(C)CC1 ... ≤ 50 nM
COc1cc(N2CCC(N3CCN(C)CC3)CC2)c(CC2CC2)cc1Nc1ncc(Cl)c(Nc2ccc3nccnc3c2N(C)S(C)(=O)=O)n1 ... ≤ 50 nM
COc1cc(N2CCN(C)CC2)c(C)cc1Nc1ncc(C(F)(F)F)c(Nc2ccc3nccnc3c2N(C)S(C)(=O)=O)n1 ... ≤ 50 nM

Inquiry: What value of measured IC50 is listed for CCc1cc(Nc2ncc(Cl)c(Nc3ccc4nccnc4c3N(C)S(=O)(=O)C(F)(F)F)n2)c(OC)cc1N1CCC(N(C)C)C1 (stereo not drawn) ?
Reply text: ≤ 50 nM

Inquiry: What value of measured IC50 is listed for CCc1cc(Nc2ncc([N+](=O)[O-])c(Nc3ccc4nccnc4c3N(C)S(C)(=O)=O)n2)c(OC)cc1N1CCC(N2CCN(C)CC2)CC1 ?
Reply text: ≤ 50 nM
